- protocol: Toxicity in mouse erythrocytes assessed as hemolysis
- Assay type: cell-based, Erythrocyte

- compound: "CO[C@H]1[C@H](O[C@H]2CC[C@@]3(C)[C@H]([C@H]2O)[C@H](O)C[C@]2(O)[C@@H]3CC[C@]3(C)[C@@H]([C@H](C)CC[C@H](O[C@@H]4O[C@@H](CO)[C@H](O)[C@H]4O)C(C)C)C[C@H](O)[C@H]32)OC[C@@H](OC)[C@@H]1O [LAEVIUSCOLOSIDE G]"
  unit: "µM"
  HC50: 130
- compound: "C[C@H](CC[C@@H](O)C(C)(C)O)[C@H]1C[C@@H](O)[C@@H]2[C@]1(C)CC[C@@H]1[C@@]3(C)CC[C@H](O)[C@H](O)[C@@H]3[C@H](O)C[C@]12O"
  unit: "µM"
  HC50: 210
- compound: "CO[C@@H]1[C@@H](OC)[C@H](O[C@@H]2C=C3[C@H](O)C[C@@]4(O)[C@@H]5[C@@H](O)[C@H](O)[C@H]([C@H](C)/C=C/C(C)CCO)[C@@]5(C)CC[C@@H]4[C@@]3(C)CC2)OC[C@H]1O (stereo not given in full)"
  unit: "µM"
  HC50: 80
- compound: "CO[C@@H]1[C@@H](OC)[C@H](O[C@@H]2C=C3[C@H](O)C[C@@]4(O)[C@@H]5[C@@H](O)[C@H](O)[C@H]([C@H](C)/C=C/[C@@H](C)[C@H](C)CO)[C@@]5(C)CC[C@@H]4[C@@]3(C)CC2)OC[C@H]1O [HENRICIOSIDE H2]"
  unit: "µM"
  HC50: 120
- compound: "CC(C)[C@@H](O)CC[C@@H](C)[C@H]1C[C@@H](O)[C@@H]2[C@]1(C)CC[C@@H]1[C@@]3(C)CC[C@H](O)[C@H](O)[C@@H]3[C@H](O)C[C@]12O"
  unit: "µM"
  HC50: 53
